- Study System: SNRK (Homo sapiens, UniProt Q9NRH2)
- Sequence (Q9NRH2 whole entry): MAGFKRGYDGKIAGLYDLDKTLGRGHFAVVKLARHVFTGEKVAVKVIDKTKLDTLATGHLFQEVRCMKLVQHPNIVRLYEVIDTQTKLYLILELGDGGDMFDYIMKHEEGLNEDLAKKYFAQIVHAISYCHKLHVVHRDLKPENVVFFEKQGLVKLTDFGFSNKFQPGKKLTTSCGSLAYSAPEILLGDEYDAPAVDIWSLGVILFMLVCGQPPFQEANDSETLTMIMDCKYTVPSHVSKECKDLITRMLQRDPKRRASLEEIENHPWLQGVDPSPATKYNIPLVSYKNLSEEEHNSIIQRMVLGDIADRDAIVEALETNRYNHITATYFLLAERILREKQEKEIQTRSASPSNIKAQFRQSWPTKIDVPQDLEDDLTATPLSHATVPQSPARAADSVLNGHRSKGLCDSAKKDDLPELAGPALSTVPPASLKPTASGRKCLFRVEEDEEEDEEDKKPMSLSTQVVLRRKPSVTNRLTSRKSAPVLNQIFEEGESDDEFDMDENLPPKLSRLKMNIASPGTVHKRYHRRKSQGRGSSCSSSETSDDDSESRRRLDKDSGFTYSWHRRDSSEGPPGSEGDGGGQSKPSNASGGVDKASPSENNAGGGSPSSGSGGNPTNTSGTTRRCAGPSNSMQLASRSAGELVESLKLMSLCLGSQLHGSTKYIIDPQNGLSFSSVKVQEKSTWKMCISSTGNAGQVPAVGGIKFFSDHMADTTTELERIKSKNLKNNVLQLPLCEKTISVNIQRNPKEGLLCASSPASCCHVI
- Assay Explanation: biochemical
- Parameters: species or system HEK293/K-562/placenta mixed human extract; Kinobeads chemoproteomic competition binding, quantified by TMT LC-MS/MS, dose response up to 20 uM
Endpoint: IC50

**Query** Given COc1nc(N[C@H]2CC[C@H](NS(=O)(=O)CC(C)C)CC2)nc2[nH]nc(N3CCOC[C@H]3C)c12 , state its recorded IC50.
**Result** ≥ 20 µM

###

- Study System: MAP4K1 (Homo sapiens)
- Sequence (Q92918 whole entry): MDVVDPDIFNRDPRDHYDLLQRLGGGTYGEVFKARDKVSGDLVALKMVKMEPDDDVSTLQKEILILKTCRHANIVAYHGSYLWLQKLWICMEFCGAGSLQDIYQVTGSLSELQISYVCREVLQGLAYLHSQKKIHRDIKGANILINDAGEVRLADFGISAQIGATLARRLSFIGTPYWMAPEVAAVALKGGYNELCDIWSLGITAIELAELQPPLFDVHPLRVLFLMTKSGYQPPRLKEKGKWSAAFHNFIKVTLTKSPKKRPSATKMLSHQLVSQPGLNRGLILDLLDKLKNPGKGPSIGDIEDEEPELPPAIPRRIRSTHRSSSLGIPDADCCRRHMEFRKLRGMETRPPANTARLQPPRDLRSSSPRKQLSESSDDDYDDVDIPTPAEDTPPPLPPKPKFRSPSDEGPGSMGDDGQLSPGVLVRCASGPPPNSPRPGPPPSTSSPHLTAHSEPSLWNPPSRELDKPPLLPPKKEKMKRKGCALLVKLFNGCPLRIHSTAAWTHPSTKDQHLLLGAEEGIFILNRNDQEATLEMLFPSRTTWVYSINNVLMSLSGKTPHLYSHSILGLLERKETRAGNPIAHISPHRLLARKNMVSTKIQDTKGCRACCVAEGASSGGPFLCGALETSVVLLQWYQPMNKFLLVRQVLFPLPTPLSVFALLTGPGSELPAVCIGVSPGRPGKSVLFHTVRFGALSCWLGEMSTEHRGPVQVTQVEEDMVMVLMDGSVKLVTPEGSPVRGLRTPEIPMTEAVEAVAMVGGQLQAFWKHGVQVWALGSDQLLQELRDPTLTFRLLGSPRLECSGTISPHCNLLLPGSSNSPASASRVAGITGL
- Assay Explanation: biochemical
- Design: species or system HEK293/K-562/placenta mixed human extract; Kinobeads chemoproteomic competition binding, quantified by TMT LC-MS/MS, dose response up to 20 uM
Endpoint: IC50

**Query** Given COc1nc(N[C@H]2CC[C@H](NS(=O)(=O)CC(C)C)CC2)nc2[nH]nc(N3CCOC[C@H]3C)c12 , state its recorded IC50.
**Result** ≥ 20 µM

###

- Study System: AZI2 (Homo sapiens, UniProt Q9H6S1)
- Sequence (Q9H6S1 whole entry): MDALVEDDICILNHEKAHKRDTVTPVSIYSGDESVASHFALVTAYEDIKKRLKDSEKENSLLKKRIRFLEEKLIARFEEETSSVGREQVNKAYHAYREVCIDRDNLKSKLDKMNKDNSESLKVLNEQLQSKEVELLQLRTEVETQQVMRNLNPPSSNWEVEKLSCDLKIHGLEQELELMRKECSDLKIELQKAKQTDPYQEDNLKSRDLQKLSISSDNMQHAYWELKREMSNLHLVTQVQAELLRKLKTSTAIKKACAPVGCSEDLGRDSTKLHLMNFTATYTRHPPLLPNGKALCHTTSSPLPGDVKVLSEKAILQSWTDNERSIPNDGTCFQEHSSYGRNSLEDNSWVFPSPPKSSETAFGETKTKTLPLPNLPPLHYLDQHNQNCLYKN
- Assay Explanation: biochemical
- Set-up: species or system HEK293/K-562/placenta mixed human extract; Kinobeads chemoproteomic competition binding, quantified by TMT LC-MS/MS, dose response up to 20 uM
pIC50: −log10 of the molar value.
Endpoint: pIC50

**Query** Given COc1ccccc1-c1n[nH]c2nc(N[C@H]3CC[C@H](NS(=O)(=O)CCC(F)(F)F)CC3)nc(OC)c12 , state its recorded pIC50.
**Result** ≤ 4.70

###

- Study System: MAP4K4 (Homo sapiens, UniProt O95819)
- Sequence (O95819 whole entry): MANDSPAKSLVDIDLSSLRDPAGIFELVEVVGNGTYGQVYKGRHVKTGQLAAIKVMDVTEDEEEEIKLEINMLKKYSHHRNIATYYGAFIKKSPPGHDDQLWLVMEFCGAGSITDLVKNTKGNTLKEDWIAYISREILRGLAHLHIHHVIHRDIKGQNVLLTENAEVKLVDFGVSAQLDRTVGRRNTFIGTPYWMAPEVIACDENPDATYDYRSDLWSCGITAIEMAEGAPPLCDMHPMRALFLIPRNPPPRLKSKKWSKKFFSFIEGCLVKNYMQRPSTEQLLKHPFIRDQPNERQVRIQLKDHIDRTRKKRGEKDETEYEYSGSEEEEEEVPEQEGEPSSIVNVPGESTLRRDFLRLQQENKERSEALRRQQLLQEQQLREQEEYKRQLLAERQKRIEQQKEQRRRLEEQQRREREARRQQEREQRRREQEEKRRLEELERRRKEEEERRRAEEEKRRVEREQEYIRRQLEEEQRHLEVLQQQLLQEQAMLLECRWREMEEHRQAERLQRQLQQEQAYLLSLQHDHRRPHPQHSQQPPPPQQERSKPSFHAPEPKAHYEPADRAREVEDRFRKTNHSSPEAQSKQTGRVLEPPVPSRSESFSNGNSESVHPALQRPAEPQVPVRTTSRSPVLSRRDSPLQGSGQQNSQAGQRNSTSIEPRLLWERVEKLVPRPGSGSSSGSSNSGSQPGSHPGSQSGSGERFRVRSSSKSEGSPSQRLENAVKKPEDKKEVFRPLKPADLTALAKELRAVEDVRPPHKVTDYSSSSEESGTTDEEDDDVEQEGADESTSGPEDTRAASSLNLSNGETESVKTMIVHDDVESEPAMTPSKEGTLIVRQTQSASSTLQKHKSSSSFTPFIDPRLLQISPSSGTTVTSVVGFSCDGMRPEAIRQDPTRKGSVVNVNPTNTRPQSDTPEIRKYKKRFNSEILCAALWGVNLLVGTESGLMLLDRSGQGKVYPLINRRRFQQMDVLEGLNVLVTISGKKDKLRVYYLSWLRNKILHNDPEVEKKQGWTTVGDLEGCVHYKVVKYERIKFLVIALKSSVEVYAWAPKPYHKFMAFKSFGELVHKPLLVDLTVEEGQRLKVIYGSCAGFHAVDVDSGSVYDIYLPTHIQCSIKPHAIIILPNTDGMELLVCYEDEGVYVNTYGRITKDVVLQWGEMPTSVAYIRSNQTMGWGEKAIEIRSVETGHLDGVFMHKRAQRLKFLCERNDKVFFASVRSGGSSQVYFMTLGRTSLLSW
- Assay Explanation: biochemical
- Set-up: species or system HEK293/K-562/placenta mixed human extract; Kinobeads chemoproteomic competition binding, quantified by TMT LC-MS/MS, dose response up to 20 uM
Endpoint: IC50

**Query** Given COc1nc(N[C@H]2CC[C@H](NS(=O)(=O)CC(C)C)CC2)nc2[nH]nc(N3CCOC[C@H]3C)c12 , state its recorded IC50.
**Result** ≥ 20 µM

###

- Study System: MAP4K3 (Homo sapiens, UniProt Q8IVH8)
- Sequence (Q8IVH8 whole entry): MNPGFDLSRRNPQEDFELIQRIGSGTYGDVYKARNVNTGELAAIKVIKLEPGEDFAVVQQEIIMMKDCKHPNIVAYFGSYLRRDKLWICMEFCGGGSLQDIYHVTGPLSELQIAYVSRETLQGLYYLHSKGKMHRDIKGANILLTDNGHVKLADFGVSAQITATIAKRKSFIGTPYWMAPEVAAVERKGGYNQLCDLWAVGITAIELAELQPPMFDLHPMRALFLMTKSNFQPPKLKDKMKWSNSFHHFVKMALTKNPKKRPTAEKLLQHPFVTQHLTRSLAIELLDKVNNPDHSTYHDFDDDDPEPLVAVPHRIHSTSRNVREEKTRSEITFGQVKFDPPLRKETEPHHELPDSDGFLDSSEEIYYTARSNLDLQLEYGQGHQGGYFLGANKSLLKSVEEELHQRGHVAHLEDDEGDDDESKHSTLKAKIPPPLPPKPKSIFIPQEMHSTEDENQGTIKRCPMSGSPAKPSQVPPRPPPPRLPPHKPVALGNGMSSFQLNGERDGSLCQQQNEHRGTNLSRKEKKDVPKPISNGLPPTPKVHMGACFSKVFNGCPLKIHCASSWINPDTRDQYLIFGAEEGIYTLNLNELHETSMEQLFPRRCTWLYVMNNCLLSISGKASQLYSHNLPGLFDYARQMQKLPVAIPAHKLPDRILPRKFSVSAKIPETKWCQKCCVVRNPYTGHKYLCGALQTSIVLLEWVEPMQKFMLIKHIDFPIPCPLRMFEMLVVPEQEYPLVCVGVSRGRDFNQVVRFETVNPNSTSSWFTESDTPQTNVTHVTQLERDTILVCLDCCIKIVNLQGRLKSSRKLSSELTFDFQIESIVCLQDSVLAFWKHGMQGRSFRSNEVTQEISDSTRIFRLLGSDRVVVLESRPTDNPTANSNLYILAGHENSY
- Assay Explanation: biochemical
- Set-up: species or system HEK293/K-562/placenta mixed human extract; Kinobeads chemoproteomic competition binding, quantified by TMT LC-MS/MS, dose response up to 20 uM
pIC50: −log10 of the molar value.
Endpoint: pIC50

**Query** Given COc1ccccc1-c1n[nH]c2nc(N[C@H]3CC[C@H](NS(=O)(=O)CCC(F)(F)F)CC3)nc(OC)c12 , state its recorded pIC50.
**Result** ≤ 4.70

###

- Study System: IKBKG (Homo sapiens)
- Sequence (Q9Y6K9 whole entry): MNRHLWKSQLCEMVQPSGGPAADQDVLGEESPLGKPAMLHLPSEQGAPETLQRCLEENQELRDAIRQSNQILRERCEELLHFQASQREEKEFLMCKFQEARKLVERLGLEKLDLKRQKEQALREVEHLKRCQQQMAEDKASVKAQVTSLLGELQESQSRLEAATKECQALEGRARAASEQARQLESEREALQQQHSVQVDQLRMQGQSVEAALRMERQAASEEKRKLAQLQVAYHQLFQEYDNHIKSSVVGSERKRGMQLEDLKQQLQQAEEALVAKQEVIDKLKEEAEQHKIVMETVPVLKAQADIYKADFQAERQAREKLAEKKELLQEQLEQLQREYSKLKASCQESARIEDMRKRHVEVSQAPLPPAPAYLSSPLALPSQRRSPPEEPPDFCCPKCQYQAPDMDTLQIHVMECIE
- Assay Explanation: biochemical
- Design: species or system HEK293/K-562/placenta mixed human extract; Kinobeads chemoproteomic competition binding, quantified by TMT LC-MS/MS, dose response up to 20 uM
Endpoint: IC50

**Query** Given COc1nc(N[C@H]2CC[C@H](NS(=O)(=O)CC(C)C)CC2)nc2[nH]nc(N3CCOC[C@H]3C)c12 [compound 39] , state its recorded IC50.
**Result** ≥ 20 µM

###

- Study System: TEC (Homo sapiens, UniProt P42680)
- Assay Explanation: biochemical
- Set-up: species or system HEK293/K-562/placenta mixed human extract; Kinobeads chemoproteomic competition binding, quantified by TMT LC-MS/MS, dose response up to 20 uM
Endpoint: IC50

**Query** Given COc1ccccc1-c1n[nH]c2nc(N[C@H]3CC[C@H](NS(=O)(=O)CCC(F)(F)F)CC3)nc(OC)c12 , state its recorded IC50.
**Result** ≥ 20 µM
